- assayed.system: MMP-13 catalytic domain (Homo sapiens, UniProt P45452)
- test.details: Inhibition of MMP-13 catalytic domain (thiopeptolide substrate hydrolysis assay)
- Assay type: biochemical
- condition: compounds of Example 33, Biological Table 1; read-out: MMP-13CD IC50
pIC50: −log10 of the molar value.
Listing of recorded pIC50 by entry.
experimental.endpoint: pIC50

[[record]]
compound = "Cc1c(SCc2ccc3ccccc3c2)n(C)c(=O)n(Cc2ccccc2)c1=O [Example 33e]"
experimental_endpoint = "pIC50"
value_measured = "< 4.00"

[[record]]
compound = "Cc1c(SCc2ccc3ccccc3c2)[nH]c(=O)n(Cc2ccccc2)c1=O [Example 33o]"
experimental_endpoint = "pIC50"
value_measured = "< 4.00"

[[record]]
compound = "Cc1c(SCC(=O)c2ccc(-c3ccccc3)cc2)[nH]c(=O)n(Cc2ccccc2)c1=O [Example 33p]"
experimental_endpoint = "pIC50"
value_measured = "< 4.52"

[[record]]
compound = "Cc1c(SCCCCOc2ccccc2)[nH]c(=O)n(Cc2ccccc2)c1=O [Example 33s]"
experimental_endpoint = "pIC50"
value_measured = "< 4.00"

[[record]]
compound = "Cc1c(SCCC(=O)c2ccc(F)cc2)n(C)c(=O)n(Cc2ccccc2)c1=O [Example 33d]"
experimental_endpoint = "pIC50"
value_measured = "< 4.00"

[[record]]
compound = "COc1ccc(C(=O)CSc2c(C)c(=O)n(Cc3ccccc3)c(=O)n2C)cc1 [Example 33h]"
experimental_endpoint = "pIC50"
value_measured = "< 4.00"

[[record]]
compound = "Cc1c(SCC(=O)c2cc(-c3ccc(Cl)cc3Cl)no2)[nH]c(=O)n(Cc2ccccc2)c1=O [Example 33t]"
experimental_endpoint = "pIC50"
value_measured = "< 4.52"

[[record]]
compound = "Cc1c(SCc2ccccc2-c2ccccc2)[nH]c(=O)n(Cc2ccccc2)c1=O [Example 33u]"
experimental_endpoint = "pIC50"
value_measured = "< 4.00"

[[record]]
compound = "Cc1c(SCC(=O)c2ccc(-c3ccccc3)cc2)n(C)c(=O)n(Cc2ccccc2)c1=O [Example 33f]"
experimental_endpoint = "pIC50"
value_measured = "< 4.00"

[[record]]
compound = "Cc1c(SCCC(=O)c2ccc(F)cc2)[nH]c(=O)n(Cc2ccccc2)c1=O [Example 33n]"
experimental_endpoint = "pIC50"
value_measured = "< 4.52"

[[record]]
compound = "COc1ccc2nc(CSc3[nH]c(=O)n(Cc4ccccc4)c(=O)c3C)c(=O)oc2c1 [Example 33k]"
experimental_endpoint = "pIC50"
value_measured = "< 4.52"

[[record]]
compound = "Cc1c(SCC(=O)c2cc(-c3ccccc3)no2)[nH]c(=O)n(Cc2ccccc2)c1=O [Example 33l]"
experimental_endpoint = "pIC50"
value_measured = "< 4.52"

[[record]]
compound = "Cc1c(SCCCC(=O)c2ccc(Br)cc2)[nH]c(=O)n(Cc2ccccc2)c1=O [Example 33r]"
experimental_endpoint = "pIC50"
value_measured = "< 4.00"

[[record]]
compound = "COc1ccc(C(=O)CSc2[nH]c(=O)n(Cc3ccccc3)c(=O)c2C)cc1 [Example 33v]"
experimental_endpoint = "pIC50"
value_measured = 4.74

[[record]]
compound = "Cc1c(SCc2ccccc2-c2ccccc2)n(C)c(=O)n(Cc2ccccc2)c1=O [Example 33g]"
experimental_endpoint = "pIC50"
value_measured = "< 4.00"

[[record]]
compound = "Cc1c(SCc2ccc3nc(C(F)(F)F)cc(Cl)c3c2)n(C)c(=O)n(Cc2ccccc2)c1=O [Example 33b]"
experimental_endpoint = "pIC50"
value_measured = "< 4.00"

[[record]]
compound = "Cc1c(SCCCc2ccccc2)n(C)c(=O)n(Cc2ccccc2)c1=O [Example 33c]"
experimental_endpoint = "pIC50"
value_measured = "< 4.00"

[[record]]
compound = "Cc1onc(-c2ccccc2)c1C(=O)CSc1[nH]c(=O)n(Cc2ccccc2)c(=O)c1C [Example 33j]"
experimental_endpoint = "pIC50"
value_measured = 4.64

